molecular target: pooled human IgG
metric: Enzyme Activity Endpoint Assay: IgG (ng/µL)
Numbers only; they are read as ng/µL.

PRT-16 (protein) MANQEIRYSEETPYHITSVWTKGVTPPTDFTQGEDVFHAPYVANQGWYDITKTFNGKDDLLCGAATAGNMLHWWFDQNKDQIERYLKKHPEKQKINFNGEQMFDVKEAIDTKDSQTDSKLFEYFKDKAFPYLSTKHLGVFPDHVLDMFINGYRLNLTNHGPTPVKEGSKDPRGGIFDAVFTRGDQSKLLTSRHDFKEKNLKEISDLIKQELQEGKALGLSHTYANVRINHVINLWGADFDSNGNLKAIYVTDSDSNASIGMKKYYVGVNAAGKVAISAKEIEEDNIGAQVLGLFTLSLGQDIWNQTN	151

Field: next protein
[Q] // lookup Enzyme Activity Endpoint Assay: IgG for PRT-546 (protein) MANQEIRYSEETPKTITSVWTKGVTPPTDFIKNEDVLHAPYIANQGWYDITKTFNGKDDLLCGAATAGNMLHWWFDQNKEEIENYLKKHPEKQKINFNGEQMFDVKEAIDTKDSQTDSALFEYFKDKAFPYLSTKHLGVFPDHVIDMFINGYRLSLTNHGPTPVKRGTKDPRGGIFDAVFTRGDQSKLLTSRHDFKEKTLNEISDLIKQELTEGKALGLSHTYANVRINHVINLWGADFNSEGNLEAIYVTDSDSNASIGMKKYYVGVNSAGKVAISAKEIEGDNIGAQVLGLFTLSTGQDIWEQTNLEHHHHHH
[A] 0
